Measured values drawn from patent US20170209455A1 for this set.

protocol-details: Kinetic solubility of melt extrudates (rotating bottle)
Format: physicochemical
experimental-context: aqueous buffer; melt extrudates equivalent to 100 mg compound of formula (I), pH 6.8 phosphate buffer, rotating bottle 50 rpm, 37° C.
measured-parameter: solubility kinetic

Any idea what its solubility kinetic is? The compound is C[C@H]1OC(=O)N(c2cc(-c3cnc(N)nc3C(F)(F)F)nc(N3CCOCC3)n2)[C@H]1CO [compound of formula (I)] ~0.04 mg/mL
